B1: KIAA0774 (parent)
chain: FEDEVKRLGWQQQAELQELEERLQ

Variants of: B1
test-method-notes: protein stability index of a GFP-peptide fusion (GPS, HEK-293T) (PSI 1-6); higher = more stable;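 also: lentivirally expressed fusions sorted by FACS into six bins by GFP to DsRed ratio, PSI derived from sequencing read proportions per bin multiplied by bin number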
experimental-parameters: c terminus: a fixed tail appended
Each record here notes measured protein stability index.
Give the figure by itself; no unit, no explanation.

[
  {
    "mutation-name": "G9Y",
    "protein stability index": 4.13
  },
  {
    "mutation-name": "E2C",
    "protein stability index": 2.71
  },
  {
    "mutation-name": "Q13T",
    "protein stability index": 3.74
  }
]

// query Look up protein stability index: `Q13E`
// result 5.03

// query Look up protein stability index: `E2S`
// result 2.32

// query Look up protein stability index: `R22T`
// result 4.83

// query Look up protein stability index: `A14Y`
// result 2.29

// query Look up protein stability index: `G9T`
// result 2.04

// query Look up protein stability index: `L8E`
// result 4.52

// query Look up protein stability index: `Q17D`
// result 3.55

// query Look up protein stability index: `L19Y`
// result 4.14

// query Look up protein stability index: `E20G`
// result 3.05

// query Look up protein stability index: `K6N`
// result 4.16

// query Look up protein stability index: `A14G`
// result 5.26

// query Look up protein stability index: `E20K`
// result 4.4

// query Look up protein stability index: `E21G`
// result 4.76

// query Look up protein stability index: `R7Q`
// result 4.79

These entries and their values trace back to the supplement of paper PMC10567573.
